Reported pIC50 values follow for various molecules
TARGET DESC: PAF-receptor (Oryctolagus cuniculus)
Construct: is regarded as a PAF-receptor membrane fraction
Sequence (G1TEI7 1-342): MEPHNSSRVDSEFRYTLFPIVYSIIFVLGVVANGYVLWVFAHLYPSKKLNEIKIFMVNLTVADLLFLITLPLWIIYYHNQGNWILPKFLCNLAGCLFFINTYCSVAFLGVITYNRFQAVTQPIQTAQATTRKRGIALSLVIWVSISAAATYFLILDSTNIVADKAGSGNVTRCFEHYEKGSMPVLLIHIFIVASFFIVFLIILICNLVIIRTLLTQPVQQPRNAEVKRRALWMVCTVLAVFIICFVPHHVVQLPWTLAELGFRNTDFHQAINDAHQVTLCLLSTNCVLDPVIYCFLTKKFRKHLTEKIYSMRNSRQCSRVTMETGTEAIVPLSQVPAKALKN
PROCEDURE DETAILS: Inhibitor effect on PAF-receptor binding
STUDY CONDITIONS: specific binding of ^3H-PAF; rabbit platelet PAF-receptor membrane fraction; read-out: Inhibition of receptor binding (IC50 M)
pIC50: −log10 of the molar value.
MEASURED ENDPOINT: pIC50

MOLECULE: COc1cc(C(=O)N2CCN(C(=O)C=C(c3cccc(Cl)c3)c3cccc(Cl)c3)CC2)cc(OC)c1OC
MEASURED ENDPOINT: pIC50
EXPERIMENTAL RESULT: 6.77

MOLECULE: CCOc1ccc(/C(=C/C(=O)N2CCN(C(=O)c3cc(OC)c(OC)c(OC)c3)CC2)c2cc(Cl)cc(Cl)c2)cc1
MEASURED ENDPOINT: pIC50
EXPERIMENTAL RESULT: 7.70

MOLECULE: COc1ccc(/C(=C/C(=O)N2CCN(C(=O)c3cc(OC)c(OC)c(OC)c3)CC2)c2ccc(Cl)c(Cl)c2)cc1
MEASURED ENDPOINT: pIC50
EXPERIMENTAL RESULT: 7.85

MOLECULE: COc1ccc(/C(=C/C(=O)N2CCN(C(=O)c3cc(OC)c(OC)c(OC)c3)CC2)c2cccc(Cl)c2Cl)cc1
MEASURED ENDPOINT: pIC50
EXPERIMENTAL RESULT: 7.49

MOLECULE: COc1ccc(/C(=C/C(=O)N2CCN(C(=O)c3cc(OC)c(OC)c(OC)c3)CC2)c2cccc(C(F)(F)F)c2)cc1
MEASURED ENDPOINT: pIC50
EXPERIMENTAL RESULT: 7.64

MOLECULE: CCCOc1ccc(/C(=C/C(=O)N2CCN(C(=O)c3cc(OC)c(OC)c(OC)c3)CC2)c2ccc(Cl)c(Cl)c2)cc1
MEASURED ENDPOINT: pIC50
EXPERIMENTAL RESULT: 7.68

MOLECULE: COc1ccc(/C(=C/C(=O)N2CCN(C(=O)c3cc(OC)c(OC)c(OC)c3)CC2)c2cc(C(F)(F)F)cc(C(F)(F)F)c2)cc1
MEASURED ENDPOINT: pIC50
EXPERIMENTAL RESULT: 7.40

MOLECULE: COc1cccc(/C(=C\C(=O)N2CCN(C(=O)c3cc(OC)c(OC)c(OC)c3)CC2)c2cccc(Cl)c2)c1
MEASURED ENDPOINT: pIC50
EXPERIMENTAL RESULT: 7.82

MOLECULE: COc1cccc(/C(=C/C(=O)N2CCN(C(=O)c3cc(OC)c(OC)c(OC)c3)CC2)c2cccc(Cl)c2)c1
MEASURED ENDPOINT: pIC50
EXPERIMENTAL RESULT: 7.89

MOLECULE: COc1cc(C(=O)N2CCN(C(=O)/C=C(/c3ccccc3)c3cccs3)CC2)cc(OC)c1OC
MEASURED ENDPOINT: pIC50
EXPERIMENTAL RESULT: 7.33

MOLECULE: COc1cc(C(=O)N2CCN(C(=O)C=C(c3cccc(C)c3)c3cccc(C)c3)CC2)cc(OC)c1OC
MEASURED ENDPOINT: pIC50
EXPERIMENTAL RESULT: 7.46

MOLECULE: COc1cccc(/C(=C/C(=O)N2CCN(C(=O)c3cc(OC)c(OC)c(OC)c3)CC2)c2ccccc2Cl)c1
MEASURED ENDPOINT: pIC50
EXPERIMENTAL RESULT: 7.59

MOLECULE: COc1cc(C(=O)N2CCN(C(=O)C=C(c3ccccc3)c3ccccc3)CC2)cc(OC)c1OC
MEASURED ENDPOINT: pIC50
EXPERIMENTAL RESULT: 7.33

MOLECULE: CCCCCCCCCCCCCCCCCCNC(=O)OCC(COP(=O)([O-])OCC[n+]1ccsc1)OC (racemic) [CV-3988, reference compound]
MEASURED ENDPOINT: pIC50
EXPERIMENTAL RESULT: 5.80

====

System: blood platelet (PAF-induced aggregation)
PROCEDURE DETAILS: Inhibitory effect in vitro against PAF-induced blood platelet aggregation
Assay type: cell-based
STUDY CONDITIONS: Oryctolagus cuniculus, 5 min; rabbit platelet rich plasma; l-C16:0 PAF final 10^-8 ~3×10^-8 M; 5 min observation
pIC50: −log10 of the molar value.
// no strictly below 7 in pIC50; yes otherwise

MOLECULE: COc1cc(C(=O)N2CCN(C(=O)C=C(c3ccc(Cl)cc3)c3ccc(Cl)cc3)CC2)cc(OC)c1OC [Example 3]
TARGET DESC: blood platelet (PAF-induced aggregation)
CLASS ASSIGNMENT: no
--
MOLECULE: COc1ccc(/C(=C/C(=O)N2CCN(C(=O)c3cc(OC)c(OC)c(OC)c3)CC2)c2cc(Cl)ccc2Cl)cc1 [Example 80]
TARGET DESC: blood platelet (PAF-induced aggregation)
CLASS ASSIGNMENT: yes
--
MOLECULE: CCCOc1ccc(/C(=C/C(=O)N2CCN(C(=O)c3cc(OC)c(OC)c(OC)c3)CC2)c2ccccc2)cc1 [Example 53]
TARGET DESC: blood platelet (PAF-induced aggregation)
CLASS ASSIGNMENT: yes
--
MOLECULE: COc1ccc(/C(=C/C(=O)N2CCN(C(=O)c3cc(OC)c(OC)c(OC)c3)CC2)c2cccc(Cl)c2)cc1 [Example 45]
TARGET DESC: blood platelet (PAF-induced aggregation)
CLASS ASSIGNMENT: yes
--
MOLECULE: COc1ccc(/C(=C\C(=O)N2CCN(C(=O)c3cc(OC)c(OC)c(OC)c3)CC2)c2ccc(OC)c(OC)c2)cc1 [Example 29]
TARGET DESC: blood platelet (PAF-induced aggregation)
CLASS ASSIGNMENT: no
--
MOLECULE: COc1ccc(/C(=C/C(=O)N2CCN(C(=O)c3cc(OC)c(OC)c(OC)c3)CC2)c2cc(Cl)cc(Cl)c2)cc1 [Example 77]
TARGET DESC: blood platelet (PAF-induced aggregation)
CLASS ASSIGNMENT: yes
--
MOLECULE: COc1ccc(/C(=C/C(=O)N2CCN(C(=O)c3cc(OC)c(OC)c(OC)c3)CC2)c2cccc(C(F)(F)F)c2)cc1OC [Example 33]
TARGET DESC: blood platelet (PAF-induced aggregation)
CLASS ASSIGNMENT: yes
--
MOLECULE: COc1ccc(/C(=C/C(=O)N2CCN(C(=O)c3cc(OC)c(OC)c(OC)c3)CC2)c2cccc(F)c2)cc1 [Example 74]
TARGET DESC: blood platelet (PAF-induced aggregation)
CLASS ASSIGNMENT: yes
--
MOLECULE: CCc1ccc(/C(=C/C(=O)N2CCN(C(=O)c3cc(OC)c(OC)c(OC)c3)CC2)c2ccc(Cl)c(Cl)c2)cc1 [Example 52]
TARGET DESC: blood platelet (PAF-induced aggregation)
CLASS ASSIGNMENT: yes
--
MOLECULE: COc1ccc(/C(=C/C(=O)N2CCN(C(=O)c3cc(OC)c(OC)c(OC)c3)CC2)c2ccc(Cl)cc2Cl)cc1 [Example 78]
TARGET DESC: blood platelet (PAF-induced aggregation)
CLASS ASSIGNMENT: yes
--
MOLECULE: CCCOc1ccc(/C(=C/C(=O)N2CCN(C(=O)c3cc(OC)c(OC)c(OC)c3)CC2)c2cccc(Cl)c2)cc1 [Example 71]
TARGET DESC: blood platelet (PAF-induced aggregation)
CLASS ASSIGNMENT: yes
--
MOLECULE: COc1ccc(C(=CC(=O)N2CCN(C(=O)c3cc(OC)c(OC)c(OC)c3)CC2)c2ccc(OC)cc2)cc1 [Example 2]
TARGET DESC: blood platelet (PAF-induced aggregation)
CLASS ASSIGNMENT: no
--
MOLECULE: COc1ccc(/C(=C/C(=O)N2CCN(C(=O)c3cc(OC)c(OC)c(OC)c3)CC2)c2ccc(Cl)c(Cl)c2)cc1 [Example 31]
TARGET DESC: blood platelet (PAF-induced aggregation)
CLASS ASSIGNMENT: yes

====

System: blood platelet (PAF-induced aggregation)
PROCEDURE DETAILS: Inhibitory effect in vitro against PAF-induced blood platelet aggregation
Format: cell-based
STUDY CONDITIONS: Oryctolagus cuniculus, 5 min; rabbit platelet rich plasma; l-C16:0 PAF final 10^-8 ~3×10^-8 M; 5 min observation
MEASURED ENDPOINT: IC50 (nM)

TEST SMILES: COc1ccc(/C(=C/C(=O)N2CCN(C(=O)c3cc(OC)c(OC)c(OC)c3)CC2)c2ccc(OC)c(OC)c2)cc1
EXPERIMENTAL RESULT: 150
--
TEST SMILES: COc1ccc(/C(=C/C(=O)N2CCN(C(=O)c3cc(OC)c(OC)c(OC)c3)CC2)c2cc(F)cc(F)c2)cc1
EXPERIMENTAL RESULT: 65
--
TEST SMILES: CCCOc1cccc(/C(=C/C(=O)N2CCN(C(=O)c3cc(OC)c(OC)c(OC)c3)CC2)c2ccccc2)c1
EXPERIMENTAL RESULT: 83
--
TEST SMILES: COc1ccc(/C(=C/C(=O)N2CCN(C(=O)c3cc(OC)c(OC)c(OC)c3)CC2)c2cccc(Cl)c2)cc1OC
EXPERIMENTAL RESULT: 63
--
TEST SMILES: COc1ccc(/C(=C/C(=O)N2CCN(C(=O)c3cc(OC)c(OC)c(OC)c3)CC2)c2ccc(C)cc2)cc1OC
EXPERIMENTAL RESULT: 110
--
TEST SMILES: COc1ccc(/C(=C\C(=O)N2CCN(C(=O)c3cc(OC)c(OC)c(OC)c3)CC2)c2cccc(C)c2)cc1OC
EXPERIMENTAL RESULT: 110
--
TEST SMILES: COc1ccc(/C(=C/C(=O)N2CCN(C(=O)c3cc(OC)c(OC)c(OC)c3)CC2)c2cccc(C(F)(F)F)c2)cc1
EXPERIMENTAL RESULT: 99
--
TEST SMILES: COc1ccc(/C(=C/C(=O)N2CCN(C(=O)c3cc(OC)c(OC)c(OC)c3)CC2)c2cccc(Br)c2)cc1
EXPERIMENTAL RESULT: 86
--
TEST SMILES: CCCOc1ccc(/C(=C/C(=O)N2CCN(C(=O)c3cc(OC)c(OC)c(OC)c3)CC2)c2ccc(Cl)c(Cl)c2)cc1
EXPERIMENTAL RESULT: 66
--
TEST SMILES: COc1ccc(/C(=C/C(=O)N2CCN(C(=O)c3cc(OC)c(OC)c(OC)c3)CC2)c2ccc(Cl)cc2)cc1OC
EXPERIMENTAL RESULT: 68
